molecular target: Estrogen receptor (Homo sapiens); assay: qHTS assay to identify small molecule antagonists of the estrogen receptor alpha (ER-alpha) signaling pathway (AID 743069); settings: HEK293 ER-alpha-UAS-bla, beta-lactamase ratio, antagonist mode; series mostly up to 69.4 µM
Records with an inconclusive call do not appear. The source made the active and inactive calls. The call rests on the fitted dose curve; in most records, active means well fitted curve in the direction sought with a large enough effect in the signal ratio in the repeat runs (not every such curve was filed as active); inconclusive means weak or mixed curves, or effect the other way; inactive means no such curve, though single readings can be large or run the other way; the % refers to the signal ratio.
Classes used: Y (active), N (inactive)

compound | category
CCCC(C)(COC(N)=O)COC(=O)NC1CC1 (stereo not given) | N
CCCC(=O)OC(C(Cl)(Cl)Cl)P(=O)(OC)OC (stereo not given) | N
CC(C)[C@H]1C(=O)N2CCC[C@H]2[C@]2(O)O[C@](NC(=O)[C@@H]3C[C@@H]4c5cccc6[nH]cc(c56)C[C@H]4N(C)C3)(C(C)C)C(=O)N12 | N
C[C@H]1[C@H]2Cc3ccc(O)cc3[C@]1(C)CCN2CCc1ccccc1 | N
O.O.O.O=C([O-])C(O)C(O)C(=O)[O-].O=C([O-])C(O)C(O)C(=O)[O-].[K+].[K+].[Sb].[Sb] (stereo not given) | Y
